# Inhibition per record follows
Tested on: HepG2
Test Details: GSK_TCMDC: Percent inhibition of human HepG2 cell line. Test compounds present at 10uM.
Type: functional
Readout Name: Inhibition (%)

Oc1cc(NCc2ccccc2NCc2ccc(Cl)c(Cl)c2)nc2ccccc12; 10
C[C@H](NC(=O)[C@H](CCCCNC(=O)OC(C)(C)C)NC(=O)OC(C)(C)c1ccc(-c2ccccc2)cc1)C(=O)OCc1ccccc1; 4
CN1CCN(Cc2ccc(-c3cccc(-c4nc5ccccc5[nH]4)c3)cc2)CC1.O=C(O)C(F)(F)F; 21
COc1ccc(OCC(=O)Nc2cc(-c3nc4ccccc4[nH]3)ccc2Cl)cc1; 18

###

Test system: Plasmodium falciparum
Test Details: GSK_TCMDC: Inhibition of Plasmodium falciparum 3D7 in whole red blood cells, using parasite LDH activity as an index of growth. Test compounds present at 2uM
Assay type: functional
Readout Name: Inhibition

NC1=NC(Cc2ccccc2)(c2ccncc2)C(=O)N1CCCc1ccccc1 (stereo not given); 86%
O=[N+]([O-])c1cccc(/C=N/Nc2ccnc3cc(F)ccc23)c1; 100%
CN(C)Cc1cccc(-c2ccc(NC(=O)c3ccc4c(=O)n(Cc5ccoc5)cnc4c3)cc2)c1; 98%
C=CCn1c(Cc2ccccc2)nnc1Sc1ccc(C#N)c([N+](=O)[O-])c1; 86%
COc1ccc(S(=O)(=O)NCCCC2CCN(CCCCCNC(=O)C=Cc3ccc(Cl)c(Cl)c3)CC2)cc1; 85%
COC(=O)CCCCOc1cc(Cc2cnc(N)nc2N)cc(OC)c1OC; 97%
Cc1csc2nc(-c3ccccn3)nc(Nc3ccncn3)c12.O=C(O)C(F)(F)F; 97%
CCCc1cc(NC2CCN(C)CC2)nc(Nc2cccc(OC)c2)n1; 100%
COc1ccc2nccc([C@@H](O)CN3CCC(NCc4ccc5c(c4)NC(=O)CS5)CC3)c2n1.O=C(O)C(=O)O; 100%
O=C(NCCN1CCOCC1)c1ccc(N2CCC(Oc3ccc4ccccc4c3)CC2)nc1; 92%

###

System: Plasmodium falciparum
Test Details: GSK_TCMDC: Inhibition of Plasmodium falciparum Dd2 in whole red blood cells, using parasite LDH activity as an index of growth. Test compounds present at 2uM
Format: functional
Class definitions on Inhibition: Low = under 40%, Mid = from 40% up to 90%, High = 90% and over

COc1ccc(C2SCC(=O)N2CCc2ccc(OC)c(OC)c2)cc1 (centres undefined); Low
CCN(CC)CCN(Cc1ccc(-c2ccc(C(F)(F)F)cc2)cc1)C(=O)Cn1cc(CCCc2cccc(F)c2F)c(=O)c2ccccc21.O=C(O)C(O)C(O)C(=O)O; Low
Cl.N#Cc1ccc2c(c1)CN(CCC1CCC(NC(=O)c3cc4ccccc4cc3N)CC1)CC2 (centres undefined); Mid
Cc1cc(NCC2CCN(CC3CCCCC3)C2)nc(Nc2ccc(Cl)cc2)n1 (centres undefined); Mid
COc1ccccc1Nc1nc(NC2CCN(C)CC2)cc(-c2cccc(C(F)(F)F)c2)n1.O=C(O)C(F)(F)F; Mid
CCC[C@@H]([C@@H](CC1CCCCC1)C(=O)N[C@H](C(=O)Nc1nccs1)C(C)(C)SCCNC(=O)OCC)N(O)C=O; High
CCC(=O)N(c1ccccc1)C1CCN(CCCC(NC(=O)c2cc(C(F)(F)F)cc(C(F)(F)F)c2)c2ccc(Cl)c(Cl)c2)CC1 (centres undefined); Mid
Cc1cc(Nc2c(C(N)=O)cnc3cc(-c4ccoc4)ccc23)ccc1N1CCN(C)CC1.Cl; High
CCCS(=O)(=O)c1nc(S(=O)(=O)c2ccc(Cl)cc2)c(N2CCCCC2)s1; Low
Cc1cc(=NN=Cc2cccc(Cl)c2)c2ccccc2[nH]1; High
Nc1ncc(-c2ccc3nccc(-c4ccncc4)c3c2)cc1S(=O)(=O)N1CCOCC1; High

###

Test system: Plasmodium falciparum
Test Details: GSK_TCMDC: Inhibition of Plasmodium falciparum 3D7 in whole red blood cells, using parasite LDH activity as an index of growth. Test compounds present at 2uM
Type: functional
Readout Name: Inhibition (%)

CN1CCC(Oc2cc(CN3CC[C@H](NC(=O)c4ccc(Cl)c(Cl)c4)C3)ccc2I)C1.O=C(O)C(F)(F)F (some centres not stated); 97
Cc1nc(N)nc(N)c1OCCCCCCOc1ccccc1.Cl; 95
COc1cc2c(cc1OC)C(C(=O)Nc1ccc(C(F)(F)F)cc1)C(c1cccs1)N(C)C2=O (configuration not stated); 99
CN(C(=O)c1snnc1-c1ccccc1)C1CCN(CCCCCNC(=O)/C=C/c2ccc(Cl)c(Cl)c2)CC1; 96
CC1(CCCCN2CCC(Oc3ccc(F)cc3F)CC2)C(=O)Nc2ccccc21.Cl (configuration not stated); 99
Cc1cc(NCCCCCCN)nc(Nc2ccc(Cl)cc2)n1; 100
CCOC(=O)c1c(C)n(-c2ccccc2)c2ccc(OC(=O)c3ccc(S(=O)(=O)N(CC)CC)cc3)cc12; 94
CCn1c(-c2nonc2N)nc2c(-c3cccc(NC(=O)Nc4cccc(C(F)(F)F)c4)c3)ncc(OCCCN)c21.O=C(O)C(F)(F)F; 95
O=C(/C=C/c1ccc(Cl)c(Cl)c1)NCCCCCCN1CCN(C(=O)Nc2ccc(Cl)c(Cl)c2)CC1; 88
Cl.Oc1ccc(Nc2nc(NCC3CCCO3)c3ccccc3n2)cc1 (configuration not stated); 100
CCOc1ccc2c(=NN=Cc3cccc(OC)c3)cc(C)[nH]c2c1; 97
Cc1cc2nc(-c3ccc(/C=C/C(=O)NCc4ccc(Cl)c(Cl)c4)cc3)[nH]c2cc1C; 98
O=C(NCc1ccc(F)cc1)c1cc(Br)cc(N2CCN(c3ccncc3)CC2)c1.O=C(O)C(F)(F)F; 80
CCOC(=O)c1ccc(NC(=O)Nc2cccc(-c3cccc(-c4nc5cccc(C)c5[nH]4)c3)c2)cc1; 100
Clc1ncnc2ncn(Cc3cccc(Br)c3)c12; 91
COc1cccc(C(=O)NCc2nnc(S)n2-c2ccc(Cl)c(Cl)c2)c1; 100
COc1ccc(NC(=O)[C@H](Cc2ccccc2)Nc2cc(C)nc(NCCc3ccccn3)n2)cc1.O=C(O)C(F)(F)F; 99

###

System: HepG2
Test Details: GSK_TCMDC: Percent inhibition of human HepG2 cell line. Test compounds present at 10uM.
Type: functional
Readout Name: Inhibition

CCCCC1=CC2C(=O)C(C(=O)OC)=CN=C2C=C1OCc1ccccc1 (stereo not drawn); 7%
CC12CN3CC(C)(CN(C1)C3c1cc(Br)ccc1O)C2O (stereo not drawn); 5%
COc1ccc(NC(=O)c2cc(-c3ccc(NC(C)=O)cc3)cnc2N)cc1; 10%
Nc1ncc(-c2ccc(F)cc2)c2ccc(-c3cccc(F)c3)cc12; 34%
CC(=O)NCCNc1cc(N2CCc3ncnc(Nc4ccc(OCc5c(F)cccc5F)c(Cl)c4)c3C2)ncn1; 55%
O=C(N[C@H]1CCCC[C@H]1C(=O)O)c1ccccc1; 7%
COc1cc(NC2=NS(=O)(=O)c3cc(Cl)ccc3N2C)cc(OC)c1OC.O=C(O)C(F)(F)F; 0%
Cc1cc(N(C)C)nc(Nc2ccc(NC(=O)C3CCCCC3)cc2)n1; 3%
Oc1ccccc1CN1CCCC(COC(c2ccc(F)cc2)c2ccc(F)cc2)C1 (stereo not drawn); 19%
CC(=O)O.Cc1cc(F)ccc1[C@H]1CNCCN1C(=O)N(C)[C@@H](C)c1cc(C(F)(F)F)cc(C(F)(F)F)c1; 20%
Cc1cc(NCCc2ccccc2)nc(N/C(=N/CC(=O)OC(C)(C)C)Nc2ccc(C(F)(F)F)cc2)n1.I; 23%
COc1ccccc1-n1c(-c2ccc3ccccc3c2)csc1=NC(=O)c1ccccc1; 0%
O=C(O)C(F)(F)F.O=S(=O)(NCCN1CCCC1)c1ccc(-c2cccc(CNC3Cc4ccccc4C3)c2)cc1; 55%
CCNc1cc(C(=O)N[C@@H](Cc2ccccc2)[C@H](O)CN[C@H](C)c2ccccc2)cc(N2CCCC2=O)c1; 0%
CC(=O)N1CCC(C(=O)Nc2ccc(-c3cccc(-c4nc5cc(C(F)(F)F)ccc5[nH]4)c3)cc2)CC1; 82%
O=C1NC(c2ccccc2)C2(CCN(CC(O)COc3cccc4ncccc34)CC2)O1 (stereo not drawn); 5%
COc1ccc2nc(C)cc(N/N=C/c3cccc([N+](=O)[O-])c3)c2c1; 6%
CC(C)CC(=O)N1CCNC[C@@H]1C(=O)NCc1ccc(Cl)c(Cl)c1.O=C(O)C(F)(F)F; 0%
CC(=O)Nc1ccc(-c2nc3ccc(-c4nc5ccc(NC(C)=O)cc5[nH]4)cc3[nH]2)cc1; 0%
Cc1cc(NCCC(=O)NCCOc2ccccc2)nc(Nc2ccccc2)n1.O=C(O)C(F)(F)F; 26%
CS(=O)(=O)c1ccc(OCCCN(Cc2ccccc2C(F)(F)F)c2ccc(C#N)c(C(F)(F)F)c2)cc1; 4%
Cc1nc(NC(=N)N)nc2ccc(C(C)(C)C)cc12.Cl; 4%
NC1CCCN(Cc2cccc(-c3ccc(-c4nc5ccccc5[nH]4)s3)c2)C1.O=C(O)C(F)(F)F (stereo not drawn); 21%
